- assayed_system: Aldo-keto reductase family 1 member C3 (Homo sapiens)
- Sequence (P42330 whole entry): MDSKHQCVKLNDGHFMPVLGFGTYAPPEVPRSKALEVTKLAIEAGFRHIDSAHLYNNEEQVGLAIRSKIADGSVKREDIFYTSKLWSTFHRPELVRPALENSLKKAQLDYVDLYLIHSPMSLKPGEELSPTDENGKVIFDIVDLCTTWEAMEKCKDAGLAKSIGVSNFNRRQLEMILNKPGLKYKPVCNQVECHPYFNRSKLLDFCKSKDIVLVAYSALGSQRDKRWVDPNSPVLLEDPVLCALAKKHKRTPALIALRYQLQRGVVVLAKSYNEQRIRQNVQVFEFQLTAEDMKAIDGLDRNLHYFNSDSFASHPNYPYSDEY
- measurement_protocol: Inhibition of human recombinant AKR1C3 assessed as 1-acenaphthenol oxidation by spectrophotometry
Could you mark each record 1 if its Ki falls strictly under 70 µM, and -1 if it equals or exceeds it?

Examples from the recorded data:
Prompt: Determine whether this molecule shows Ki lower than 70 µM (ties excluded): O=C1CCC2(c3ccccc3)Nc3ccccc3N12 (stereo not drawn)
Completion: 1

Prompt: Determine whether this molecule shows Ki lower than 70 µM (ties excluded): O=C(O)c1cc(-c2cccc(O)c2)nc2ccccc12
Completion: 1

Prompt: Determine whether this molecule shows Ki lower than 70 µM (ties excluded): O=C(CC1SC(=O)NC1=O)Nc1ccccc1O (stereo not drawn)
Completion: 1

Prompt: Determine whether this molecule shows Ki lower than 70 µM (ties excluded): Cc1cc(C(=O)Nc2ccc(O)c(C(=O)O)c2)oc1C
Completion: -1

Prompt: Determine whether this molecule shows Ki lower than 70 µM (ties excluded): O=C(O)CCNc1cc2ccccc2cc1C(=O)O
Completion: 1

Prompt: Determine whether this molecule shows Ki lower than 70 µM (ties excluded): O=C(O)CCNS(=O)(=O)c1ccc2ccccc2c1
Completion: -1

Prompt: Determine whether this molecule shows Ki lower than 70 µM (ties excluded): Cc1ccc(S(=O)(=O)Nc2cccc(C(=O)O)c2)cc1
Completion: -1

Prompt: Determine whether this molecule shows Ki lower than 70 µM (ties excluded): NC(=O)c1ccccc1/N=C/c1cccc(O)c1
Completion: 1

Prompt: Determine whether this molecule shows Ki lower than 70 µM (ties excluded): O=C1COc2ccc(C(=O)c3ccccc3)cc2CN1
Completion: -1

Prompt: Determine whether this molecule shows Ki lower than 70 µM (ties excluded): Cc1ccn(Cc2cc(C(=O)O)c3ccccc3n2)n1
Completion: -1

More entries:
Prompt: Determine whether this molecule shows Ki lower than 70 µM (ties excluded): O=C(O)c1cccc(Nc2nc3ccccc3[nH]2)c1
Completion: -1

Prompt: Determine whether this molecule shows Ki lower than 70 µM (ties excluded): Cc1cc(Nc2cc(C(=O)O)ccc2C)nc(C)n1
Completion: -1
